# study-target: 5-HT1A receptor (Sus scrofa, UniProt A0A4X1UTF5)
# Construct: to a swine hippocampus membrane fraction; from tissue; host or cells: swine hippocampus
# Sequence (A0A4X1UTF5 1-422): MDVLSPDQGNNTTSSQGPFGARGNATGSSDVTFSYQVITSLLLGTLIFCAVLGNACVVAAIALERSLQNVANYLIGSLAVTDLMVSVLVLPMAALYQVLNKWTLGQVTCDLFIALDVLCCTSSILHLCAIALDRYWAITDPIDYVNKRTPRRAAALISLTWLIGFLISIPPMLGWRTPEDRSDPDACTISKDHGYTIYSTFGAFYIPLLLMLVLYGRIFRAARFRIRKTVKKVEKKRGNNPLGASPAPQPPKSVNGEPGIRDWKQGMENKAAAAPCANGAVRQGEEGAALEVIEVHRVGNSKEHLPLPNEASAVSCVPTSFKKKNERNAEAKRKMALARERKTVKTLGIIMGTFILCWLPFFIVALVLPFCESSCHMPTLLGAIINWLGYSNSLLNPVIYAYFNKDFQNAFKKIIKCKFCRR
# test-details: Test on affinity for serotonin 1A receptor ([3H]MPPF, hippocampus membrane fraction)
# Type: binding, swine
# details: low affinity IC50 divided by high affinity IC50; not more than 1 = no intrinsic activity, not less than 2 = intrinsic activity
# Procedure: The affinity of test compounds for the 5-HT1A receptor was determined by an experiment for inhibition of a test compound against the binding of [^3H]-4-(2′-Methoxy)phenyl-1-[2′-(N-2″-pyridinyl)-p-fluorobenzamido]ethyl-piperazine (MPPF), selectively bound to the 5-HT1A receptor, to a swine hippocampus membrane fraction. […]
parameter: L/H ratio

Here is how some molecules turned out for L/H ratio.
| substance-smiles | study-target | observed-result |
| --- | --- | --- |
| COc1ccc2c(c1CCN1CCC(n3ccc4ccc(C(N)=O)cc43)CC1)OC(C)(C)CC2=O | 5-HT1A receptor (Sus scrofa, UniProt A0A4X1UTF5) | 0.8 |
| COc1ccc2c(C)noc2c1CCN1CCC(n2ccc3ccc(C(N)=O)cc32)CC1 | 5-HT1A receptor (Sus scrofa, UniProt A0A4X1UTF5) | 1.6 |
| COc1ccc2nc(C)oc2c1CCN1CCC(n2ccc3ccc(C(N)=O)cc32)CC1 | 5-HT1A receptor (Sus scrofa, UniProt A0A4X1UTF5) | 0.7 |
| COc1cc2c(cc1CCN1CCC(n3ccc4ccc(C(N)=O)cc43)CC1)OCCO2 | 5-HT1A receptor (Sus scrofa, UniProt A0A4X1UTF5) | 0.9 |
| COc1cc2onc(C)c2cc1CCN1CCC(n2ccc3ccc(C(N)=O)cc32)CC1 | 5-HT1A receptor (Sus scrofa, UniProt A0A4X1UTF5) | 1.3 |

Query string: Entry CNC(=O)c1ccc2ccn(C3CCN(CCc4c(OC)ccc5c4OC(C)(C)CC5=O)CC3)c2c1 has what L/H ratio?
Result string: 0.8

Query string: Entry COc1cc2oc(C)nc2cc1CCN1CCC(n2ccc3ccc(C(N)=O)cc32)CC1 has what L/H ratio?
Result string: 0.9
